# assay.system: human recombinant serotonin (5-Hydroxytryptamine) 5-HT2A receptor (Homo sapiens, UniProt P28223)
# Construct: expressed in transfected cells; host or cells: CHO-K1
# Sequence (P28223 whole entry): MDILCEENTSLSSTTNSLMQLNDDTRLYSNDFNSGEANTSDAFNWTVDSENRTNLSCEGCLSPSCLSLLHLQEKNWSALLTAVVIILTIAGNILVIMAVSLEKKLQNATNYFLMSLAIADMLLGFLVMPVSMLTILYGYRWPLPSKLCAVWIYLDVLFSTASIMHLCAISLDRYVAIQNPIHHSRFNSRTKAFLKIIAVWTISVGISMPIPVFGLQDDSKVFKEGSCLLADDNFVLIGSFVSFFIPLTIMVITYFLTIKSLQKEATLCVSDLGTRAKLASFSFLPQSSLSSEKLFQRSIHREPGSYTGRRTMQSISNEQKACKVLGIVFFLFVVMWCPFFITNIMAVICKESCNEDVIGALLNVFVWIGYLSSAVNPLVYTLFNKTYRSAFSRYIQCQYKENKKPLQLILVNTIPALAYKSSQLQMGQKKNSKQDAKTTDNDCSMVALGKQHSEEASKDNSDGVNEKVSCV
# procedure.summary: Serotonin 5-HT2A radioligand binding ([3H]Ketanserin)
# test.context: compound at 0.1 μM; read-out: Inhibition of ligand binding, Serotonin 5-HT2A (percent inhibition of specific binding)
measured.parameter: inhibition at 0.1 µM (%)
Your answer should be a plain number; it is taken to be in %.

Provide one value: measured inhibition at 0.1 µM of Cc1ccc2c(c1)c1c(n2-c2cccc(-c3ccc(C)nc3)c2)CCN(C)C1 [Compound 60]
102

Provide one value: measured inhibition at 0.1 µM of Cc1ccc2c(c1)c1c(n2-c2ccccc2-c2ccc(C)s2)CCN(C)C1 [Compound No. 81]
87

Provide one value: measured inhibition at 0.1 µM of Cc1ccc2c(c1)c1c(n2-c2cncn2C)CCN(C)C1 [Compound 18]
14

Provide one value: measured inhibition at 0.1 µM of Cc1ccc2c(c1)c1c(n2-c2cccc(-c3sccc3C)c2)CCN(C)C1 [Compound 43]
102

Provide one value: measured inhibition at 0.1 µM of Cc1csc(-c2cscc2-n2c3c(c4cc(C)ccc42)CN(C)CC3)c1 [Compound 50]
86

Provide one value: measured inhibition at 0.1 µM of Cc1ccc2c(c1)c1c(n2-c2ccccc2-c2cnn(C)c2)CCN(C)C1 [Compound No. 86]
94

Provide one value: measured inhibition at 0.1 µM of Cc1ccc2c(c1)c1c(n2-c2ccccc2-c2cccn2C)CCN(C)C1 [Compound No. 100]
74

Provide one value: measured inhibition at 0.1 µM of Cc1ccc2c(c1)c1c(n2-c2cccc(-c3cccn3C)c2)CCN(C)C1 [Compound No. 69]
99

Provide one value: measured inhibition at 0.1 µM of Cc1ccc2c(c1)c1c(n2-c2ccc(-c3ccc(F)cc3)cn2)CCN(C)C1 [Compound No. 140]
104

Provide one value: measured inhibition at 0.1 µM of Cc1ccc2c(c1)c1c(n2-c2ccccc2-c2ccc(S(N)(=O)=O)cc2)CCN(C)C1 [Compound No. 163]
73

Provide one value: measured inhibition at 0.1 µM of CN1CCc2c(c3cc(Cl)ccc3n2-c2ccsc2)C1 [Compound 29]
101

Provide one value: measured inhibition at 0.1 µM of Cc1ccc2c(c1)c1c(n2-c2ccsc2)CCN(C)C1 [Compound 14]
97

Provide one value: measured inhibition at 0.1 µM of Cc1ccc2c(c1)c1c(n2-c2cccc(-c3c(C)noc3C)c2)CCN(C)C1 [Compound No. 65]
85

Provide one value: measured inhibition at 0.1 µM of Cc1ccc2c(c1)c1c(n2-c2cscc2-c2c(C)noc2C)CCN(C)C1 [Compound 62]
68

Provide one value: measured inhibition at 0.1 µM of Cc1ccc2c(c1)c1c(n2-c2ccc(-c3ccc(F)nc3)cn2)CCN(C)C1 [Compound No. 142]
103

Provide one value: measured inhibition at 0.1 µM of Cc1ccc2c(c1)c1c(n2-c2ccccc2-c2sccc2C)CCN(C)C1 [Compound No. 102]
92

Provide one value: measured inhibition at 0.1 µM of Cc1csc(-c2ccccc2-n2c3c(c4cc(C)ccc42)CN(C)CC3)c1 [Compound 36]
80

Provide one value: measured inhibition at 0.1 µM of Cc1ccc2c(c1)c1c(n2-c2ccccc2-c2c(C)noc2C)CCN(C)C1 [Compound No. 82]
73

###

# assay.system: human recombinant serotonin (5-Hydroxytryptamine) 5-HT7 receptor (Homo sapiens)
# Construct: expressed in transfected cells; host or cells: CHO
# Sequence (P34969 whole entry): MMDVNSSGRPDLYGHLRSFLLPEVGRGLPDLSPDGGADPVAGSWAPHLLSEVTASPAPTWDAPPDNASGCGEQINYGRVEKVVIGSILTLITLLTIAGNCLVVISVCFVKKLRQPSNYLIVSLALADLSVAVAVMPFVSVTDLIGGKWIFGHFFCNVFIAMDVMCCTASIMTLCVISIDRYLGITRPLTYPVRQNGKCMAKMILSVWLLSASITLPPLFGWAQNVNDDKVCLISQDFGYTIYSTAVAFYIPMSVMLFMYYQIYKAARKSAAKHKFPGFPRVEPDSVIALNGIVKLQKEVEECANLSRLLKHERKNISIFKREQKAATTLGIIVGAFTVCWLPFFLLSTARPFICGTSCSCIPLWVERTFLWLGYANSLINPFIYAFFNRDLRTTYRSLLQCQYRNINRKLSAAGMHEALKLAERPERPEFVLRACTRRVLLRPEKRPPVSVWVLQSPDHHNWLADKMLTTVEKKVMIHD
# procedure.summary: Serotonin 5-HT7 radioligand binding ([3H]LSD)
# test.context: compound at 0.1 μM; read-out: Inhibition of ligand binding, Serotonin 5-HT7 (percent inhibition of specific binding)
Give inhibition at 0.1 µM for every item shown.
Your answer should be a plain number; it is taken to be in %.

Provide one value: measured inhibition at 0.1 µM of Cc1ccc2c(c1)c1c(n2-c2cscc2-c2ccc3c(ccn3C)c2)CCN(C)C1 [Compound 33]
94

Provide one value: measured inhibition at 0.1 µM of Cc1ccc2c(c1)c1c(n2-c2cccc(-c3ccc4c(ccn4C)c3)c2)CCN(C)C1 [Compound 53]
4

Provide one value: measured inhibition at 0.1 µM of Cc1ccc2c(c1)c1c(n2-c2ccc(-c3ccncc3)cn2)CCN(C)C1 [Compound No. 132]
23

Provide one value: measured inhibition at 0.1 µM of Cc1ccc2c(c1)c1c(n2-c2ccccc2-c2ccc(S(C)(=O)=O)cc2)CCN(C)C1 [Compound No. 160]
17

Provide one value: measured inhibition at 0.1 µM of Cc1ccc2c(c1)c1c(n2-c2ccc(-c3c(C)noc3C)cn2)CCN(C)C1 [Compound No. 137]
40

Provide one value: measured inhibition at 0.1 µM of Cc1ccc2c(c1)c1c(n2-c2ccc(-c3ccc(S(N)(=O)=O)cc3)cn2)CCN(C)C1 [Compound No. 145]
32

Provide one value: measured inhibition at 0.1 µM of Cc1ccc2c(c1)c1c(n2-c2ccccc2-c2cncc3ccccc23)CCN(C)C1 [Compound No. 87]
14

Provide one value: measured inhibition at 0.1 µM of Cc1ccc2c(c1)c1c(n2-c2cccc(-c3ccc4[nH]cnc4c3)c2)CCN(C)C1 [Compound 54]
26

Provide one value: measured inhibition at 0.1 µM of Cc1ccc2c(c1)c1c(n2-c2ccccc2-c2cccn2C)CCN(C)C1 [Compound No. 100]
48

Provide one value: measured inhibition at 0.1 µM of Cc1cc(C)c2c(c1)c1c(n2-c2cccc3ncccc23)CCN(C)C1 [Compound 47]
36

Provide one value: measured inhibition at 0.1 µM of Cc1ccc2c(c1)c1c(n2-c2ccccc2-c2ccc(C)nc2)CCN(C)C1 [Compound 59]
48

Provide one value: measured inhibition at 0.1 µM of Cc1ccc2c(c1)c1c(n2-c2cccc(-c3c(C)noc3C)c2)CCN(C)C1 [Compound No. 65]
46

Provide one value: measured inhibition at 0.1 µM of Cc1ccc2c(c1)c1c(n2-c2cscc2-c2cc3ccccc3s2)CCN(C)C1 [Compound No. 151]
90

Provide one value: measured inhibition at 0.1 µM of Cc1ccc2c(c1)c1c(n2-c2cccc(-c3cnn(C)c3)c2)CCN(C)C1 [Compound 46]
51

Provide one value: measured inhibition at 0.1 µM of Cc1ccc2c(c1)c1c(n2-c2ccsc2)CCN(C)C1 [Compound 14]
61

Provide one value: measured inhibition at 0.1 µM of Cc1ccc2c(c1)c1c(n2-c2ccoc2)CCN(C)C1 [Compound 15]
57

Provide one value: measured inhibition at 0.1 µM of Cc1ccc2c(c1)c1c(n2-c2ccccc2-c2c(C)noc2C)CCN(C)C1 [Compound No. 82]
24

Provide one value: measured inhibition at 0.1 µM of Cc1ccc2c(c1)c1c(n2-c2cscc2-c2ccc(C)s2)CCN(C)C1 [Compound No. 79]
98

Provide one value: measured inhibition at 0.1 µM of CN1CCc2c(c3cc(Cl)ccc3n2-c2ccsc2)C1 [Compound 29]
63

Provide one value: measured inhibition at 0.1 µM of Cc1ccc2c(c1)c1c(n2-c2cscc2-c2sccc2C)CCN(C)C1 [Compound 39]
97

Provide one value: measured inhibition at 0.1 µM of Cc1csc(-c2ccccc2-n2c3c(c4cc(C)ccc42)CN(C)CC3)c1 [Compound 36]
51

Provide one value: measured inhibition at 0.1 µM of CNC(=O)c1ccc(-c2ccccc2-n2c3c(c4cc(C)ccc42)CN(C)CC3)cc1 [Compound No. 72]
30

Provide one value: measured inhibition at 0.1 µM of CNC(=O)c1ccc(-c2cccc(-n3c4c(c5cc(C)ccc53)CN(C)CC4)c2)cn1 [Compound No. 75]
21

Provide one value: measured inhibition at 0.1 µM of Cc1ccc2c(c1)c1c(n2-c2ccc3nc(C)ccc3c2)CCN(C)C1 [Compound No. 157]
16

Provide one value: measured inhibition at 0.1 µM of Cc1ccc2c(c1)c1c(n2-c2ccc3ncccc3c2)CCN(C)C1 [Compound 24]
25

Provide one value: measured inhibition at 0.1 µM of Cc1ccc2c(c1)c1c(n2-c2ccccc2-c2cnc(N(C)C)nc2)CCN(C)C1 [Compound 31]
-2

Provide one value: measured inhibition at 0.1 µM of Cc1ccc2c(c1)c1c(n2-c2ccncc2)CCN(C)C1 [Compound 2]
36

Provide one value: measured inhibition at 0.1 µM of Cc1ccc2c(c1)c1c(n2-c2ccc(-c3ccc(F)cc3)cn2)CCN(C)C1 [Compound No. 140]
41

Provide one value: measured inhibition at 0.1 µM of Cc1ccc2c(c1)c1c(n2-c2ccccc2N(C)C)CCN(C)C1 [Compound 6]
49

Provide one value: measured inhibition at 0.1 µM of Cc1ccc2c(c1)c1c(n2-c2ccc(-c3ccc(C)nc3)cn2)CCN(C)C1 [Compound No. 156]
28

Provide one value: measured inhibition at 0.1 µM of Cc1ccc2c(c1)c1c(n2-c2ccc(-c3sccc3C)cn2)CCN(C)C1 [Compound No. 148]
35

Provide one value: measured inhibition at 0.1 µM of Cc1ccc2c(c1)c1c(n2-c2cccc3cnccc23)CCN(C)C1 [Compound 9]
59

Provide one value: measured inhibition at 0.1 µM of CC(=O)Nc1ccc(-c2cccc(-n3c4c(c5cc(C)ccc53)CN(C)CC4)c2)cn1 [Compound 45]
51

Provide one value: measured inhibition at 0.1 µM of Cc1ccc2c(c1)c1c(n2-c2ccccc2-c2ccncc2)CCN(C)C1 [Compound 5]
64
